System: Acinetobacter baumannii
Assay: Antibacterial activity against beta-lactam resistant Acinetobacter baumannii by broth microdilution method
Assay type: functional
Settings: Acinetobacter baumannii
measured.quantity: MIC50 (µg/mL)
Reply with just the number (in µg/mL).

Consider the reported MIC50 for these compounds:
Cn1c(CN2CCCC2)cc2cc3c(cc21)CCCc1c-3[nH]c(=O)c(C(=O)O)c1O
2
CCNCc1cc2cc(-c3[nH]c(=O)c(C(=O)O)c(O)c3CC)ccc2n1C
2
C[C@H]1COc2c(N3CCN(C)CC3)c(F)cc3c(=O)c(C(=O)O)cn1c23.C[C@H]1COc2c(N3CCN(C)CC3)c(F)cc3c(=O)c(C(=O)O)cn1c23.O
2
CCNCc1cc2cc3c(cc2n1C)CCCc1c-3[nH]c(=O)c(C(=O)O)c1O
2
CN(C)Cc1cc2cc3c(cc2n1C)OCCc1c-3[nH]c(=O)c(C(=O)O)c1O
2
Cn1c(CNC2(C)CCC2)cc2cc3c(cc21)OCCc1c-3[nH]c(=O)c(C(=O)O)c1O
1
CN(C)Cc1cc2cc3c(cc2n1C)CCCc1c-3[nH]c(=O)c(C(=O)O)c1O
2
Cn1c(CN2CCCC2)cc2cc3c(cc21)OCCc1c-3[nH]c(=O)c(C(=O)O)c1O
2

Query: State its MIC50 on Acinetobacter baumannii: "CC(C)NCc1cc2cc3c(cc2n1C)CCCc1c-3[nH]c(=O)c(C(=O)O)c1O"
Reply: 2
